Target: Amine oxidase [flavin-containing] A (Homo sapiens); also: assay procedure not described here
Sequence (P21397 whole entry): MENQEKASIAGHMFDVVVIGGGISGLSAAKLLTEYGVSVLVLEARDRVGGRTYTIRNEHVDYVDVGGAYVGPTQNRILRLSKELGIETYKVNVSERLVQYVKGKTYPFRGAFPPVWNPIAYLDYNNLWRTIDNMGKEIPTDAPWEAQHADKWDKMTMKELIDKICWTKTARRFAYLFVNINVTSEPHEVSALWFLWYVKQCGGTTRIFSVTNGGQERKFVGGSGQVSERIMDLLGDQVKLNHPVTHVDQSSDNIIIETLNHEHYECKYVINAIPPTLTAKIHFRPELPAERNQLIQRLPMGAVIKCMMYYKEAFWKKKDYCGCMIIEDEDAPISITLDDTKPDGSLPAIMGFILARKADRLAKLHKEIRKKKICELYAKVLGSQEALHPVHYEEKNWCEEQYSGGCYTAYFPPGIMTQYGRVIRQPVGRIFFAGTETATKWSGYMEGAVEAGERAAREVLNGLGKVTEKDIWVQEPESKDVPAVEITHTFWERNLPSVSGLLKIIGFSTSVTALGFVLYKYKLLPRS
Assay type: functional
OBSERVED_PROPERTY: AC50

Recorded results for 2 compounds are shown here.
Cc1cc(O)c(C(=O)N[C@@H](C(=O)N[C@@H]2C(=O)N3C(C(=O)O)=C(CSc4nnnn4C)CS[C@H]23)c2ccc(O)cc2)cn1 [CEFPIRAMIDE]; > 30 µM
COC1=C(OC)C(=O)C(C/C=C(\C)CC/C=C(\C)CC/C=C(\C)CC/C=C(\C)CC/C=C(\C)CC/C=C(\C)CC/C=C(\C)CC/C=C(\C)CC/C=C(\C)CCC=C(C)C)=C(C)C1=O [UBIDECARENONE]; > 30 µM

--- query ---
Summary: Cc1ccc(-n2nccn2)c(C(=O)N2CCN(c3nc4cc(Cl)ccc4o3)CC[C@H]2C)c1 [SUVOREXANT] , Amine oxidase [flavin-containing] A (Homo sapiens), AC50 = > 30 µM

====

Recorded AC50 values (Muscarinic acetylcholine receptor M2 (Homo sapiens)) are given below.

Recorded results for 3 compounds are shown here.
Cc1cc(C#N)cc(C)c1Oc1nc(Nc2ccc(C#N)cc2)nc(N)c1Br; 22.6 µM
O=[N+]([O-])O[C@@H]1CO[C@H]2[C@@H]1OC[C@@H]2O [ISOSORBIDE MONONITRATE]; > 30 µM
CC[C@H]1OC(=O)[C@H](C)[C@@H](O[C@H]2C[C@@](C)(OC)[C@@H](O)[C@H](C)O2)[C@H](C)[C@@H](O[C@@H]2O[C@H](C)C[C@H](N(C)C)[C@H]2O)[C@](C)(O)C[C@@H](C)CN(C)[C@H](C)[C@@H](O)[C@]1(C)O; > 30 µM

Summary: CC[C@H]1[C@@H](O)[C@@H]2[C@H](CC[C@]3(C)[C@@H]([C@H](C)CCC(=O)O)CC[C@@H]23)[C@@]2(C)CC[C@@H](O)C[C@@H]12 , Muscarinic acetylcholine receptor M2 (Homo sapiens), AC50 = > 30 µM

Summary: C=C[C@H]1C[N@@]2CC[C@H]1C[C@H]2[C@H](O)c1ccnc2ccc(OC)cc12 , Muscarinic acetylcholine receptor M2 (Homo sapiens), AC50 = > 30 µM

Summary: CC(C)(C)C(=O)C(Oc1ccc(Cl)cc1)n1ccnc1 (stereo unspecified) , Muscarinic acetylcholine receptor M2 (Homo sapiens), AC50 = > 30 µM

====

Molecular target: Gamma-aminobutyric acid receptor subunit alpha-1 (Rattus norvegicus, UniProt P62813); also: assay procedure not described here
Sequence (P62813 whole entry): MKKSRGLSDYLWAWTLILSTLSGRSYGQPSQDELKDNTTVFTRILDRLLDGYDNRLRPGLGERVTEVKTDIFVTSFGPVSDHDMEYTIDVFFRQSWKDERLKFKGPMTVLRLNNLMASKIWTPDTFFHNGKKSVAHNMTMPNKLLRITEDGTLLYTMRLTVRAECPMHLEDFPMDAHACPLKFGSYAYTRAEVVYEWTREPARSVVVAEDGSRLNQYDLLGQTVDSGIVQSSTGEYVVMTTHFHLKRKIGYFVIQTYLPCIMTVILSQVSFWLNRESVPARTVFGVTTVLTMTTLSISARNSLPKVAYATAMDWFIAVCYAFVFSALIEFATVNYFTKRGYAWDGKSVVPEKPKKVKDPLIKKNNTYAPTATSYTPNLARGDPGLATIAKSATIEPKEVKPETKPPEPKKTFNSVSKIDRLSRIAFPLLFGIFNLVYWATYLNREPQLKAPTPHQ
OBSERVED_PROPERTY: AC50

Recorded results for 5 compounds are shown here.
O=C(O[C@H]1C[C@H]2CC[C@@H](C1)[N+]21CCCC1)C(O)(c1ccccc1)c1ccccc1; > 30 µM
O=[N+]([O-])O[C@@H]1CO[C@H]2[C@@H]1OC[C@@H]2O [ISOSORBIDE MONONITRATE]; > 10 µM
CCCc1nc(C(C)(C)O)c(C(=O)OCc2oc(=O)oc2C)n1Cc1ccc(-c2ccccc2-c2nnn[nH]2)cc1; > 10 µM
CO[C@H]1C[C@@H]2CC[C@@H](C)[C@@](O)(O2)C(=O)C(=O)N2CCCC[C@H]2C(=O)O[C@H]([C@H](C)C[C@@H]2CC[C@@H](O)[C@H](OC)C2)CC(=O)[C@H](C)/C=C(\C)[C@@H](O)[C@@H](OC)C(=O)[C@H](C)C[C@H](C)/C=C/C=C/C=C/1C; > 10 µM
COc1cc2nc(N3CCN(C(=O)c4ccco4)CC3)nc(N)c2cc1OC; > 10 µM

--- query ---
Summary: CCN(CC)C(=O)N[C@H]1C[C@@H]2c3cccc4[nH]cc(c34)C[C@H]2N(C)C1 [TERGURIDE] , Gamma-aminobutyric acid receptor subunit alpha-1 (Rattus norvegicus, UniProt P62813), AC50 = > 30 µM

====

Biological target: 5-hydroxytryptamine receptor 2B (Homo sapiens, UniProt P41595); also: assay procedure not described here
Sequence (P41595 whole entry): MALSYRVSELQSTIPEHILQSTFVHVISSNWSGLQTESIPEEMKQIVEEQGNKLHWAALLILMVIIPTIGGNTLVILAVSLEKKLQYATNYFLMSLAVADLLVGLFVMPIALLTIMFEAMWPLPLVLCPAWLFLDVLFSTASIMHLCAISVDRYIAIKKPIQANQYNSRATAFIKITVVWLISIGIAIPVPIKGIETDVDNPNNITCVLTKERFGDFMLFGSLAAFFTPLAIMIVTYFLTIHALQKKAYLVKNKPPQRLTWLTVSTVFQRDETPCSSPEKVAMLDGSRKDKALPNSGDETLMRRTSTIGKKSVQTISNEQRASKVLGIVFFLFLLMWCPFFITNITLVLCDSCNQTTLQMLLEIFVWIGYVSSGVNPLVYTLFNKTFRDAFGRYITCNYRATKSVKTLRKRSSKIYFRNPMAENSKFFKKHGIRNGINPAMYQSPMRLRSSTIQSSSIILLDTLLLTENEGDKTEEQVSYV
Format: functional, cell-based
The entries below come with measured AC50 values attached.

O=C(NCCNCC(O)COc1ccc(O)cc1)N1CCOCC1 (stereo not given); > 30 µM

Please fill in: AC50 reported for CN1C(C(=O)Nc2ccccn2)=C(O)c2sc(Cl)cc2S1(=O)=O = > 10 µM

Please fill in: AC50 reported for C1CCC(C(CC2CCCCN2)C2CCCCC2)CC1 (stereo not given) = 12 µM

Please fill in: AC50 reported for Clc1ccccc1C(c1ccccc1)(c1ccccc1)n1ccnc1 = > 10 µM

Please fill in: AC50 reported for CCCCCNC(=N)N/N=C/c1c[nH]c2ccc(OC)cc12 = > 30 µM

====

Recorded AC50 values (D(3) dopamine receptor (Homo sapiens)) are given below.

Cc1ccc(S(=O)(=O)NC(=O)NN2CC3CCCC3C2)cc1 (stereo not given) [GLICLAZIDE]; > 30 µM
COC1=C(OC)C(=O)C(C/C=C(\C)CC/C=C(\C)CC/C=C(\C)CC/C=C(\C)CC/C=C(\C)CC/C=C(\C)CC/C=C(\C)CC/C=C(\C)CC/C=C(\C)CCC=C(C)C)=C(C)C1=O; > 30 µM
C[C@@H](O)[C@H]1C(=O)N2C(C(=O)O)=C(S[C@@H]3CN[C@H](C(=O)N(C)C)C3)[C@H](C)[C@H]12; > 300 µM
Nc1nc(Cl)nc2c1ncn2[C@H]1C[C@H](O)[C@@H](CO)O1; > 30 µM
COc1ccc2c3c1O[C@H]1[C@@H](O)CC[C@H]4[C@@H](C2)N(C)CC[C@@]341 [DIHYDROCODEINE]; > 30 µM
CCOC(=O)OC(C)OC1=C(C(=O)Nc2ccccn2)N(C)S(=O)(=O)c2ccccc21 (stereo not given); > 30 µM
Fc1ccc(C(c2ccccc2)(c2ccccc2F)n2ccnc2)cc1 (stereo not given); > 30 µM
Cc1c(C(=O)NN2CCCCC2)nn(-c2ccc(Cl)cc2Cl)c1-c1ccc(Cl)cc1; 15 µM
CCCCc1ncc(/C=C(\Cc2cccs2)C(=O)O)n1Cc1ccc(C(=O)O)cc1; > 10 µM
O=C(OCC(O)CO)c1ccccc1Nc1ccnc2cc(Cl)ccc12 (stereo not given); > 30 µM

Summary: O=C(NCCNCC(O)COc1ccc(O)cc1)N1CCOCC1 (stereo not given) , D(3) dopamine receptor (Homo sapiens), AC50 = > 30 µM

Summary: CCCc1nc(C(C)(C)O)c(C(=O)OCc2oc(=O)oc2C)n1Cc1ccc(-c2ccccc2-c2nnn[nH]2)cc1 , D(3) dopamine receptor (Homo sapiens), AC50 = > 10 µM

Summary: Cc1ccc(-c2cc(C(F)(F)F)nn2-c2ccc(S(N)(=O)=O)cc2)cc1 , D(3) dopamine receptor (Homo sapiens), AC50 = > 30 µM

Summary: Nc1ccn([C@H]2CC[C@@H](CO)O2)c(=O)n1 , D(3) dopamine receptor (Homo sapiens), AC50 = > 10 µM

Summary: NCC[C@H](O)C(=O)N[C@@H]1C[C@H](N)[C@@H](O[C@H]2O[C@H](CN)[C@@H](O)[C@H](O)[C@H]2O)[C@H](O)[C@H]1O[C@H]1O[C@H](CO)[C@@H](O)[C@H](N)[C@H]1O , D(3) dopamine receptor (Homo sapiens), AC50 = > 30 µM

====

Recorded AC50 values (Gamma-aminobutyric acid receptor subunit alpha-1 (Rattus norvegicus, UniProt P62813)) are given below.

Summary: C[C@H](CSC(=O)c1ccccc1)C(=O)N1C[C@@H](Sc2ccccc2)C[C@H]1C(=O)O , Gamma-aminobutyric acid receptor subunit alpha-1 (Rattus norvegicus, UniProt P62813), AC50 = > 10 µM

Summary: COc1ccc2c3c1O[C@H]1[C@@H](O)CC[C@H]4[C@@H](C2)N(C)CC[C@@]341 [DIHYDROCODEINE] , Gamma-aminobutyric acid receptor subunit alpha-1 (Rattus norvegicus, UniProt P62813), AC50 = > 30 µM

Summary: CC(CC(c1ccccc1)c1ccccc1)NC(C)(C)C (configuration not stated) , Gamma-aminobutyric acid receptor subunit alpha-1 (Rattus norvegicus, UniProt P62813), AC50 = > 30 µM

Summary: C#C[C@]1(O)CC[C@H]2[C@@H]3CCC4=Cc5oncc5C[C@]4(C)[C@H]3CC[C@@]21C , Gamma-aminobutyric acid receptor subunit alpha-1 (Rattus norvegicus, UniProt P62813), AC50 = > 10 µM

Summary: O=P1(NCCCl)OCCCN1CCCl (configuration not stated) [IFOSFAMIDE] , Gamma-aminobutyric acid receptor subunit alpha-1 (Rattus norvegicus, UniProt P62813), AC50 = > 30 µM

Summary: CC(C)C(=O)c1c(C(C)C)nn2ccccc12 , Gamma-aminobutyric acid receptor subunit alpha-1 (Rattus norvegicus, UniProt P62813), AC50 = > 30 µM

Summary: CCOc1ccc(Cc2cc([C@@H]3O[C@H](CO)[C@@H](O)[C@H](O)[C@H]3O)ccc2Cl)cc1 , Gamma-aminobutyric acid receptor subunit alpha-1 (Rattus norvegicus, UniProt P62813), AC50 = > 10 µM

Summary: CC(C)C[C@H]1C(=O)N2CCC[C@H]2[C@]2(O)O[C@](NC(=O)[C@@H]3C=C4c5cccc6[nH]c(Br)c(c56)C[C@H]4N(C)C3)(C(C)C)C(=O)N12 , Gamma-aminobutyric acid receptor subunit alpha-1 (Rattus norvegicus, UniProt P62813), AC50 = > 10 µM

Summary: Brc1c(NC2=NCCN2)ccc2nccnc12 , Gamma-aminobutyric acid receptor subunit alpha-1 (Rattus norvegicus, UniProt P62813), AC50 = > 30 µM

Summary: C[C@H](N)[C@H](O)c1cccc(O)c1 , Gamma-aminobutyric acid receptor subunit alpha-1 (Rattus norvegicus, UniProt P62813), AC50 = > 10 µM

Summary: CN1C(C(=O)Nc2ccccn2)=C(O)c2sc(Cl)cc2S1(=O)=O , Gamma-aminobutyric acid receptor subunit alpha-1 (Rattus norvegicus, UniProt P62813), AC50 = > 10 µM

Summary: CC(=O)OCC(=O)[C@@]12N=C(C)O[C@@H]1C[C@H]1[C@@H]3CCC4=CC(=O)C=C[C@]4(C)[C@H]3[C@@H](O)C[C@@]12C , Gamma-aminobutyric acid receptor subunit alpha-1 (Rattus norvegicus, UniProt P62813), AC50 = > 30 µM

Summary: CN(C)/N=N/c1[nH]cnc1C(N)=O , Gamma-aminobutyric acid receptor subunit alpha-1 (Rattus norvegicus, UniProt P62813), AC50 = > 10 µM

Summary: COc1ccccc1N1CCN(CCCNc2cc(=O)n(C)c(=O)n2C)CC1 , Gamma-aminobutyric acid receptor subunit alpha-1 (Rattus norvegicus, UniProt P62813), AC50 = > 30 µM

Summary: CCCC(=O)O[C@]1(C(=O)CO)CC[C@H]2[C@@H]3CCC4=CC(=O)CC[C@]4(C)[C@H]3[C@@H](O)C[C@@]21C [HYDROCORTISONE BUTYRATE] , Gamma-aminobutyric acid receptor subunit alpha-1 (Rattus norvegicus, UniProt P62813), AC50 = > 10 µM

Summary: C#C[C@]1(O)CC[C@H]2[C@@H]3CCc4cc(OC5CCCC5)ccc4[C@H]3CC[C@@]21C , Gamma-aminobutyric acid receptor subunit alpha-1 (Rattus norvegicus, UniProt P62813), AC50 = > 10 µM

Summary: CN1CCN(CC/C=C2/c3ccccc3Sc3ccc(S(=O)(=O)N(C)C)cc32)CC1 , Gamma-aminobutyric acid receptor subunit alpha-1 (Rattus norvegicus, UniProt P62813), AC50 = > 10 µM
